- test_system: Programmed Death 1 (PD-1) (UniProt Q15116 25-288, limits assumed)
- Sequence (Q15116 25-288 limits assumed): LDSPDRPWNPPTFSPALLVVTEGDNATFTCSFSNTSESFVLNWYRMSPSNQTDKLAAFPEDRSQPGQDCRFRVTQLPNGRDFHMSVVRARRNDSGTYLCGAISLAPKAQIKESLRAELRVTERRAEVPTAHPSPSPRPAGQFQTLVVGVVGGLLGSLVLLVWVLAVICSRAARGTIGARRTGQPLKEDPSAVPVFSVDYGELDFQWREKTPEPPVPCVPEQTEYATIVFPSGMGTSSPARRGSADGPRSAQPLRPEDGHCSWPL
- test: rank of the clone by competition binding against labelled murine mAb BAP049, second experiment (legends paragraph 52); footnote: empty boxes means worse than 4
Reported Competition Binding, 2nd exp. (rank) values follow for various binders
reported_metric: Competition Binding, 2nd exp. (rank)

[
  {
    "binder": "BAP049-hum03 (antibody, human IgG4 S228P, kappa, V domains shown, also called clone 3) VH: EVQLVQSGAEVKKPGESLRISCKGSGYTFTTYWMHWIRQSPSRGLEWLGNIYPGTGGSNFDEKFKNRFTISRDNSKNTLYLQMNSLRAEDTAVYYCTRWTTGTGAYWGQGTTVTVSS VL: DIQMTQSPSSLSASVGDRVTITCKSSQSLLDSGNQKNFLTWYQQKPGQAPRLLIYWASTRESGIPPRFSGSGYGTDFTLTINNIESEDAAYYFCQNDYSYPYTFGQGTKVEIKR",
    "reported_metric": "Competition Binding, 2nd exp. (rank)",
    "modifier_sign": "=",
    "measured_number": 14
  },
  {
    "binder": "BAP049-hum05 (antibody, human IgG4 S228P, kappa, V domains shown, also called humanized BAP049 clone hum05) VH: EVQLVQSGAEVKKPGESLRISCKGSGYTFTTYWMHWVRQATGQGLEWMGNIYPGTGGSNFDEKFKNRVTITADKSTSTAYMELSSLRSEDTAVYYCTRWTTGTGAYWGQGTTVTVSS VL: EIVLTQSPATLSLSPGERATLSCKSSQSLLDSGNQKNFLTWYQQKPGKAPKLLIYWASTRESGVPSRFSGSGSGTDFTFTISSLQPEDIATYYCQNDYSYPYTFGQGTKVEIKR",
    "reported_metric": "Competition Binding, 2nd exp. (rank)",
    "modifier_sign": ">",
    "measured_number": 4
  },
  {
    "binder": "BAP049-hum12 (antibody, human IgG4 S228P, kappa, V domains shown, also called clone 12) VH: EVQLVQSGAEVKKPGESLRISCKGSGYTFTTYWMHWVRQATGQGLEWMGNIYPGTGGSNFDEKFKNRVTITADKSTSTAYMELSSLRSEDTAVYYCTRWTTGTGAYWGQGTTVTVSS VL: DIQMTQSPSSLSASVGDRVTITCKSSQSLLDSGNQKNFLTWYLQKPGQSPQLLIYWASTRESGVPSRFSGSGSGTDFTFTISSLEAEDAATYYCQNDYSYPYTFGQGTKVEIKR",
    "reported_metric": "Competition Binding, 2nd exp. (rank)",
    "modifier_sign": "=",
    "measured_number": 16
  },
  {
    "binder": "BAP049-hum04 (antibody, human IgG4 S228P, kappa, V domains shown, also called clone 4) VH: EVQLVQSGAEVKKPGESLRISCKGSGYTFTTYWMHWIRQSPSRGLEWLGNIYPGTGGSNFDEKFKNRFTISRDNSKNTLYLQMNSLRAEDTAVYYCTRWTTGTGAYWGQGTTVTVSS VL: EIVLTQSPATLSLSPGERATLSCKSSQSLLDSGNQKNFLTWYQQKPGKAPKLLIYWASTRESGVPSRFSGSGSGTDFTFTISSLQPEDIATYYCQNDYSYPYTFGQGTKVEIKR",
    "reported_metric": "Competition Binding, 2nd exp. (rank)",
    "modifier_sign": "=",
    "measured_number": 15
  }
]
